Tested on: 695427-040-R-J1-PDC complex spheroids, viability percent T/C;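 note: spheroids exposed to compounds for seven days before readout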
Assay: Anticancer human tumor 695427-040-R-J1-PDC patient-derived colon adenocarcinoma cell line growth inhibition [GQUAD]
Settings: second compound 10 µM; first compound 0.000999 µM; active compounds read low
Excerpt: DNA G-quadruplex Stabilizer Agents in Combinations in Complex Spheroids A high-throughput screen of multi-cell type tumor spheroids was designed to identify active combinations of DNA G-quadruplex stabilizer agents and targeted small molecules. […] Compounds. […] If the clinical Cmax for an agent had not been determined, the highest concentration tested was 10 microM. […]
Recorded endpoint: viability, T/C (%)
One number for each entry, in %.

The reported viability, T/C of the compound CCc1c2c(nc3ccc(O)cc13)-c1cc3c(c(=O)n1C2)COC(=O)[C@]3(O)CC + Cc1[nH]c2ccc(F)cc2c1-c1nc2c3cccnc3c3ncccc3c2[nH]1 was 71.9

The reported viability, T/C of the compound CC[C@@]1(O)C(=O)OCc2c1cc1n(c2=O)Cc2cc3c(CN(C)C)c(O)ccc3nc2-1 + Cc1[nH]c2ccc(F)cc2c1-c1nc2c3cccnc3c3ncccc3c2[nH]1 was 58.9

---
The reported viability, T/C of the compound CCc1c2c(nc3ccc(O)cc13)-c1cc3c(c(=O)n1C2)COC(=O)[C@]3(O)CC + CN(C)c1ccc(Nc2c3ccc(NC(=O)CCN4CCCC4)cc3nc3cc(NC(=O)CCN4CCCC4)ccc23)cc1 was 90.2
